Assay: Inhibition of SARS-CoV-2 N-terminus His tagged nsp10/nsp16 complex expressed in Escherichia coli using [3H]SAM as substrate by scintillation proximity assay
Design: species or system Severe acute respiratory syndrome coronavirus 2
Readout type: pIC50
// pIC50: -log10(molar conc.)

Ask: Look up and report measured pIC50 for this entry: Nc1ncnc2c1ncn2[C@@H]1O[C@H](CSCC[C@H](N)C(=O)O)[C@@H](O)[C@H]1O
Reply: 5.41

----------
Test: Cytotoxicity against human A549-ACE2 cells
Assay type: toxicity, cell-based
Readout type: CC50 (µM)
Supply the numeric figure in µM, leaving out any unit text.

Past entries and their recorded results:
In [3]: df
Out[3]:
                                        mol  unit_abbreviation  measured_result
0  Cc1ccc(S(=O)(=O)N2C[C@@]34CN(Cc5nc6ccccc6s5)C[C@@H](O3)[C@H]3C(=O)CC[C@]2(C(C)C)[C@H]34)cc1                 µM               37
1  COc1ccc(CCN2C[C@H]3O[C@]4(C2)CN(S(=O)(=O)c2ccc(C)cc2)[C@]2(C(C)C)C=CC(=O)[C@H]3[C@H]42)cc1                 µM              6.6
2  Cc1ccc(S(=O)(=O)N2C[C@@]34CN(C(=O)c5ccc(F)cc5N)C[C@@H](O3)[C@@H]3[C@H]4[C@@]2(C(C)C)CC[C@@H]3O)cc1                 µM               20
3  Cc1ccc(S(=O)(=O)N2C[C@@]34CN(Cc5ccccc5)C[C@@H](O3)[C@H]3[C@@H](Oc5ncccn5)CC[C@]2(C(C)C)[C@H]34)cc1                 µM              6.3
4  Cc1ccc(S(=O)(=O)N2C[C@@]34CN(Cc5ccccc5)C[C@@H](O3)[C@H]3C(=O)C=C[C@]2(C(C)C)[C@H]34)cc1                 µM               14

Ask: Kindly indicate its recorded CC50. Item: Cc1ccc(S(=O)(=O)N2C[C@@]34CN(C)C[C@@H](O3)[C@H]3[C@@H](Oc5ncccn5)CC[C@]2(C(C)C)[C@H]34)cc1
Reply: 17

Ask: Provide one value: measured CC50 of Cc1ccc(S(=O)(=O)N2C[C@@]34CN(CCc5c[nH]c6ccccc56)C[C@@H](O3)[C@@H]3[C@H]4[C@@]2(C(C)C)CC[C@@H]3O)cc1
Reply: 13

Ask: Quick one: give measured CC50 for Cc1ccc(S(=O)(=O)N2C[C@@]34CN(Cc5nc6ccccc6s5)C[C@@H](O3)[C@@H]3[C@H]4[C@@]2(C(C)C)CC[C@@H]3O)cc1
Reply: 12

Ask: For the compound COc1cc(CN2C[C@H]3O[C@]4(C2)CN(S(=O)(=O)c2ccc(C)cc2)[C@]2(C(C)C)CC[C@H](OCCCN(C)C)[C@H]3[C@H]42)cc(OC)c1 , give its reported CC50.
Reply: 7.7

Ask: Item COc1ccc(CCN2C[C@H]3O[C@]4(C2)CN(S(=O)(=O)c2ccc(C)cc2)[C@]2(C(C)C)C=C[C@H](O)[C@H]3[C@H]42)cc1 : provide CC50
Reply: 12

Ask: Hello, please tell me recorded CC50 for this one: COc1cc(CN2C[C@H]3O[C@]4(C2)CN(S(=O)(=O)c2ccc(C)cc2)[C@]2(C(C)C)CC[C@H](O)[C@H]3[C@H]42)cc(OC)c1
Reply: 13

Ask: Answer with the recorded CC50 for the compound listed here: Cc1ccc(S(=O)(=O)N2C[C@@]34CN(Cc5ccccc5)C[C@@H](O3)[C@H]3C(=O)CC[C@]2(C(C)C)[C@H]34)cc1
Reply: 5.8

Sourced from ChEMBL document CHEMBL5252642
